# assaySummary: in vivo
# testSettings: female, athymic nude-Foxn1nu/Foxn1+, mouse, 20 pmol, total radioactivity, Biodistribution HEK-SST2 (+) tumour uptake
Where a SMILES comes first, the peptide text is derived from it. Bridges are numbered along the chain shown (N, C = ends). [ ]: non-standard residue; d: D form. The star is where a group is joined. dPhe(4-NHCONH2) = NC(=O)Nc1ccc(C[C@@H](N)C(=O)O)cc1; Phe(4-Cl) = N[C@@H](Cc1ccc(Cl)cc1)C(=O)O; X1 = NCCNCC(CNCCN)C(=O)*
Measured tissue uptake at 1 h by item
Use %ID/g as the unit, but write only the number.

1. C[C@@H](O)[C@@H]1NC(=O)[C@H](CCCCN)NC(=O)[C@@H](Cc2ccc(NC(N)=O)cc2)NC(=O)[C@H](Cc2ccc(O)cc2)NC(=O)[C@H](NC(=O)[C@H](Cc2ccc(Cl)cc2)NC(=O)C(CNCCN)CNCCN)CSSC[C@@H](C(=O)N[C@H](Cc2ccc(O)cc2)C(N)=O)NC1=O [[^99mTc]Tc-TECANT-1, metal not drawn] (X1-[Phe(4-Cl)][dC]Y[dPhe(4-NHCONH2)]KTC[dY]-NH2; disulfide 2-7) | 21

Request: Consider the compound C[C@@H](O)[C@@H]1NC(=O)[C@H](CCCCN)NC(=O)[C@@H](Cc2c[nH]c3ccccc23)NC(=O)[C@H](Cc2ccc(O)cc2)NC(=O)[C@H](NC(=O)[C@H](Cc2ccc(Cl)cc2)NC(=O)C(CNCCN)CNCCN)CSSC[C@@H](C(=O)N[C@H](Cc2ccc(O)cc2)C(N)=O)NC1=O [[^99mTc]Tc-TECANT-2, metal not drawn] and give its measured tissue uptake at 1 h.
Response: 19.1
